Target: SHP2-C SH2
Assay: SH2 binding enrichment of the phosphorylated peptide, bacterial display (enrichment ratio); higher = better substrate or ligand; peptides without Tyr show the background
measurement type: SH2 binding enrichment

ordered residues: PHMQTYEVDPN [SDHB_Y61_L65P]
SH2 binding enrichment: 0.717

ordered residues: SVVVLYEPPEV [TP53_Y220_P219L]
SH2 binding enrichment: 0.612

ordered residues: SQQTYYPVSNM [ABCD1_Y181_R182P]
SH2 binding enrichment: 0.534

ordered residues: VTAALYGRLFE [BTD_Y536_YF]
SH2 binding enrichment: 1.16

ordered residues: NCFKYYMSDDI [ATRX_Y204]
SH2 binding enrichment: 0.799

ordered residues: AHAGEYGAGAL [HBA1_Y25_E28G]
SH2 binding enrichment: 0.589

a. ASKEPYYVHCI [MYO1D_Y585_R588H]
b. KACKHYLTTRT [ZBTB5_Y118]
Prompt: Between a and b , which one has the lower reported SH2 binding enrichment value? Write down the label of the entry you select.
Completion: a

a. EEGRVYVFRLS [ITGAE_Y549_YF]
b. DTKPVYQNLRQ [BOD1_Y82_A81V]
Prompt: Between a and b , which one has the lower reported SH2 binding enrichment value? Write down the label of the entry you select.
Completion: a
(a: 0.806, b: 1.65)

A. FQCLRYIKQLG [SAMHD1_Y146_R143C]
B. GGMTEYKLVVV [KRAS_Y4]
Prompt: Between A and B , which one has the lower reported SH2 binding enrichment value? Write down the label of the entry you select.
Completion: A
(A: 0.658, B: 2.14)

###

Biological target: c-Src SH2
Assay: SH2 binding enrichment of the phosphorylated peptide, bacterial display (enrichment ratio); higher = better substrate or ligand; peptides without Tyr show the background
measurement type: SH2 binding enrichment

ordered residues: VRALTYCDLHK [KCNH2_Y827]
SH2 binding enrichment: 0.715

ordered residues: FIRKDYEACKA [BBS4_Y48_YF]
SH2 binding enrichment: 0.792

P. AAVDTVCRHNF [HLA-DRB1_Y107_Y107V_YF]
Q. PSDPSYEDTRE [BMPR1A_Y467_M470T]
R. RQNNSYTCFTA [SLC20A2_Y386_R382Q_YF]
Prompt: Exam item: list the entries in increasing order of SH2 binding enrichment. The reply should contain the labels ordered as requested.
Completion: P, R, Q

###

Biological target: Grb2 SH2 (UniProt P62993)
Experiment: SH2 binding enrichment of the phosphorylated peptide, bacterial display (enrichment ratio); higher = better substrate or ligand; peptides without Tyr show the background
measurement type: SH2 binding enrichment

ordered residues: NYYDLYGGEKF [PTPN11_Y66_D61N]
measurement type: SH2 binding enrichment
measured result: 1.16

A. EPSVDYCVVKI [CAD_Y735]
B. YRASYYRKGGC [ALK_Y1283]
Prompt: Hi team, can someone confirm which has the larger SH2 binding enrichment: A or B ? Thanks. Write down the label of the entry you select.
Completion: A

###

We begin with a simple list: items and their reported phosphorylation enrichment.
Molecular target: Hck (UniProt P08631)
Sequence (P08631 whole entry, looked up): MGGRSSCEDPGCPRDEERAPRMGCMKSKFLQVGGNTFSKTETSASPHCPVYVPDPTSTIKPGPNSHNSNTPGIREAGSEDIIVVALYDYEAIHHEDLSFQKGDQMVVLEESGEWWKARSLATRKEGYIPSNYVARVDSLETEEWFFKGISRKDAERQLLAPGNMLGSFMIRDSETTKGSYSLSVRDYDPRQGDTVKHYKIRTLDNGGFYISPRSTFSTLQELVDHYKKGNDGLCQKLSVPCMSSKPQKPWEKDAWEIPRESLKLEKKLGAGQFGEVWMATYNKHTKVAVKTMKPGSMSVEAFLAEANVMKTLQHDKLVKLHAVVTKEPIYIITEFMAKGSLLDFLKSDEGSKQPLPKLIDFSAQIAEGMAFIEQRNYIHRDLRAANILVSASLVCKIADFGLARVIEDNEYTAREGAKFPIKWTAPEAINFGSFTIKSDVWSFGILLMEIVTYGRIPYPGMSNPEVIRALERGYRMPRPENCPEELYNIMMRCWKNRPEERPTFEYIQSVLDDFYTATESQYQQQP
Assay: phosphorylation enrichment, bacterial display (enrichment ratio); higher = better substrate or ligand; peptides without Tyr show the background
Just the number, please, no unit after it.

Here is how some sequences turned out for phosphorylation enrichment.
ordered residues: VHLYAYDWISI [BEST1_Y227_G222V]
measurement type: phosphorylation enrichment
measured result: 1.83

ordered residues: LKEIRYPPYTD [ALDH3B2_Y362_H361R]
measurement type: phosphorylation enrichment
measured result: 0.678

ordered residues: LSQQVYRVNLS [FAT4_Y480_F475L]
measurement type: phosphorylation enrichment
measured result: 0.521

ordered residues: HVSISYDIPPT [GAB1_Y307]
measurement type: phosphorylation enrichment
measured result: 0.644

ordered residues: RKNAKYLLKGE [CDH5_Y82]
measurement type: phosphorylation enrichment
measured result: 0.577

ordered residues: DLQDEYDFKRK [STAT1_Y170_C174R]
measurement type: phosphorylation enrichment
measured result: 0.472

Prompt: Enter reported phosphorylation enrichment observed with Hck (UniProt P08631) for CTTIHYNFMCK [TP53_Y234_N239K_YF]
Completion: 0.533

Prompt: How about this sequence: SLIDGYYRLTA [JAK2_Y372]
Completion: 0.475

Prompt: How about this sequence: NYSKMYCNPDA [KNL1_Y489_A486S]
Completion: 0.469

Prompt: How about this sequence: DRLASYLDKAR [KRT14_Y129_V133A]
Completion: 0.342

Prompt: How about this sequence: DYTEAYNSKIK [CLK1_Y305_P307S]
Completion: 0.382
